Origin of the recorded values: patent US20180099931A1

study_target: F508delCFTR (Homo sapiens, UniProt P13569, DEL508-508)
Construct: expressed in transfected cells; host or cells: CFBE41o- human lung-derived epithelial cells (CFBE4lo-F508delCFTR-HRP), doxycycline-inducible
Sequence (P13569 with tags, fused parts or gaps DEL508-508): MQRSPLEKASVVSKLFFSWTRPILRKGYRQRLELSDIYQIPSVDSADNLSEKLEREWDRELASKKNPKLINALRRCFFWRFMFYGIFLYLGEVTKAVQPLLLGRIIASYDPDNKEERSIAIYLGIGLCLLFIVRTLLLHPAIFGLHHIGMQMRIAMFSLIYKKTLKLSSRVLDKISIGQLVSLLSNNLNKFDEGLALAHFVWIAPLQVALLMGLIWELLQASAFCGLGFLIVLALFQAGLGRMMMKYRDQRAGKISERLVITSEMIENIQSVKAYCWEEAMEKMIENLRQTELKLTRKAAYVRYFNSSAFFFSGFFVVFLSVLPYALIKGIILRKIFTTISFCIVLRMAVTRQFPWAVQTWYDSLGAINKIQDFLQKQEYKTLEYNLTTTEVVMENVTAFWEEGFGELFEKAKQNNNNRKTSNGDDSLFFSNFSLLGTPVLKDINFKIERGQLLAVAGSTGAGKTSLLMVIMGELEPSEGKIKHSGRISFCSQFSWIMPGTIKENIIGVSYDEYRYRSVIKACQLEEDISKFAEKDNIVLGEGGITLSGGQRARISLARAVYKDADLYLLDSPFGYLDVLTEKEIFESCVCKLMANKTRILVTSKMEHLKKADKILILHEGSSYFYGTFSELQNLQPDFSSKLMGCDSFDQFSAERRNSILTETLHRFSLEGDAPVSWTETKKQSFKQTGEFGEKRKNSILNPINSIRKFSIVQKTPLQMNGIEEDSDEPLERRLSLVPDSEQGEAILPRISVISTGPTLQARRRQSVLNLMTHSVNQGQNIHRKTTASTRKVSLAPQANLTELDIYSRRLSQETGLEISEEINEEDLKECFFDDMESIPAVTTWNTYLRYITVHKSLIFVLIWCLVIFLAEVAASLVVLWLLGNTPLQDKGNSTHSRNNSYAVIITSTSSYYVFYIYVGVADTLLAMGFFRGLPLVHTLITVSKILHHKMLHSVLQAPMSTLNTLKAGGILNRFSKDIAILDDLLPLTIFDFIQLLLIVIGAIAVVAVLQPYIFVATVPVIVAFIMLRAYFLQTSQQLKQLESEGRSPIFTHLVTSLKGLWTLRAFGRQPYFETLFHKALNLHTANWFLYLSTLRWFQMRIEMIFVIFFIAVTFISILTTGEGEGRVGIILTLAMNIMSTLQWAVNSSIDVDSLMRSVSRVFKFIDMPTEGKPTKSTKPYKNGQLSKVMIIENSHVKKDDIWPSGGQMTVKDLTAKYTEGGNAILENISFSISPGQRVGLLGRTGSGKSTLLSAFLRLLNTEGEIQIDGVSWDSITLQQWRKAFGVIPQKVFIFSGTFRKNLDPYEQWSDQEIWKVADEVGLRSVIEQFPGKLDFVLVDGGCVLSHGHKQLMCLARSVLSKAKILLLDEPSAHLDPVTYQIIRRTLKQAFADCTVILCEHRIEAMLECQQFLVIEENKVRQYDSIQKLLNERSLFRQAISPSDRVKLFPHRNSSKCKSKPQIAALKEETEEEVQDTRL
assay_method_text: Cell Surface Expression-Horse Radish Peroxidase (CSE-HRP) Assay
Format: cell-based
condition_parameters: CSE-HRP; with co-corrector (2 μM of 3-[(2R,4R)-4-({[1-(2,2-difluoro-1,3-benzodioxol-5-yl)cyclopropyl]carbonyl}amino)-7-methoxy-3,4-dihydro-2H-chromen-2-yl]benzoic acid); read-out: EC50 (with co-corrector)
reported_endpoint: EC50

For CC[C@H](C(=O)N1[C@H](C(=O)O)[C@@H](C(C)(C)C)[C@H](NCc2cc(C(C)(C)C)ccc2OC)[C@@H]1c1cccnc1OC)c1ccccc1 , what is its reported EC50?
1 to 10 µM

For COc1ccc(C(C)(C)C)cc1CN[C@H]1[C@H](C(C)(C)C)[C@@H](C(=O)O)N(C(=O)c2cnn(-c3ccccc3C)c2C)[C@H]1c1ccccc1 , what is its reported EC50?
< 1 µM

For COc1ccc(C(C)(C)C)cc1CN[C@H]1[C@H](C(C)(C)C)[C@@H](C(=O)O)N(C(=O)C2CCCCS2(=O)=O)[C@H]1c1ccccc1 (some centres unmarked) , what is its reported EC50?
1 to 10 µM

For COc1ccc(C(C)C)cc1CN[C@H]1[C@H](C(C)(C)C)[C@@H](C(=O)O)N(C(=O)C2CCCCC2)[C@H]1c1ccccc1 , what is its reported EC50?
< 1 µM

For COc1cc(C(F)(F)F)ccc1CN[C@@H]1[C@@H](C(C)(C)OC)[C@H](C(=O)O)N(C(=O)C2CCCCC2)[C@@H]1c1ccccc1 (racemic) , what is its reported EC50?
1 to 10 µM

* * *

study_target: F508delCFTR (Homo sapiens, UniProt P13569, DEL508-508)
Construct: expressed in transfected cells; host or cells: CFBE41o- human lung-derived epithelial cells (CFBE4lo-F508delCFTR-HRP), doxycycline-inducible
assay_method_text: Cell Surface Expression-Horse Radish Peroxidase (CSE-HRP) Assay;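 as to Maximum % activity (without co-corrector): percent of the 2 µM on-plate positive control corrector response above DMSO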
Format: cell-based
condition_parameters: without co-corrector; maximum at any tested concentration, normalized to on-plate positive control; read-out: Maximum % activity (without co-corrector)
reported_endpoint: Emax

For COc1nc(C(C)(C)C)ccc1CN[C@H]1[C@H](C(C)(C)C)[C@@H](C(=O)O)N(C(=O)[C@@H]2CCCCO2)[C@H]1c1ccccc1F [Example I-231] , what is its reported Emax?
100 to 200%

For COc1ncc(C2CC2)cc1CN[C@H]1[C@H](C(C)(C)C)[C@@H](C(=O)O)N(C(=O)[C@@H]2CCCO2)[C@H]1c1ccccc1C(C)C [Example 101] , what is its reported Emax?
> 200%

For COc1ccc(C(C)(C)C)cc1CN[C@H]1[C@H](C(C)(C)C)[C@@H](C(=O)O)N(C(=O)C(OC)C2CCCCC2)[C@H]1c1ccccc1 (stereo partly drawn) [Example I-160] , what is its reported Emax?
> 200%

For COc1ncc(C2CCC2)cc1CN[C@H]1[C@H](C23CC(C2)C3)[C@@H](C(=O)O)N(C(=O)OC(C)C)[C@H]1c1ccccc1 [Example I-236] , what is its reported Emax?
100 to 200%

For COc1ccc(C(C)(C)C)cc1CN[C@H]1[C@H](C(C)(C)C)[C@@](C)(C(=O)O)N(C(=O)C2CCCCC2)[C@H]1c1ccccc1 (racemic) [Example I-211] , what is its reported Emax?
< 100%

For CCn1ccc(=O)c(C(=O)N2[C@H](C(=O)O)[C@@H](C(C)(C)C)[C@H](NCc3cc(C(C)(C)C)ccc3OC)[C@@H]2c2ccccc2)c1 [Example I-101] , what is its reported Emax?
< 100%

For COc1ccc(C(C)(C)C)cc1CN[C@H]1[C@H](C(C)(C)C)[C@@H](C(=O)NS(C)(=O)=O)N(C(=O)C2CCCCC2)[C@H]1c1ccccc1 [Example 58] , what is its reported Emax?
< 100%

For COc1ncc(C(F)(F)F)cc1CN[C@H]1[C@H](C(C)(C)OC)[C@@H](C(=O)O)N(C(=O)C2CCCCC2)[C@H]1c1ccccc1 [Example 22] , what is its reported Emax?
100 to 200%

For COc1ccc(-c2ccccc2F)cc1CN[C@H]1[C@H](C(C)(C)C)[C@@H](C(=O)O)N(C(=O)C2CCCCC2)[C@H]1c1ccccc1 [Example I-126] , what is its reported Emax?
> 200%

For COc1nc(C(C)(C)C)ccc1CN[C@H]1[C@H](C(C)(C)C)[C@@H](C(=O)O)N(C(=O)C2CCCCC2)[C@H]1c1cccnc1OC [Example I-230] , what is its reported Emax?
100 to 200%

For CC(C)c1ccccc1CN[C@@H]1[C@@H](C(C)(C)C)[C@H](C(=O)O)N(C(=O)C2CCCCC2)[C@@H]1c1ccccc1 (racemic) [Example I-35] , what is its reported Emax?
< 100%

For COc1ccc(C(F)(F)F)cc1CN[C@H]1[C@H](C(C)(C)C)[C@@H](C(=O)O)N(C(=O)C2CC3CC3C2)[C@H]1c1ccccc1 (stereo partly drawn) [Example I-162] , what is its reported Emax?
100 to 200%

For CC(C)(C)[C@@H]1[C@@H](Nc2nccc(C(F)(F)F)n2)[C@@H](c2ccccc2)N(C(=O)C2CCCCC2)[C@H]1C(=O)O (racemic) [Example I-5] , what is its reported Emax?
< 100%

For CC(C)(C)[C@H]1[C@H](NCc2ccc(F)cc2OCC2CC2)[C@H](c2ccccc2)N(C(=O)C2CCCCC2)[C@@H]1C(=O)O [Example I-50] , what is its reported Emax?
< 100%

For COc1ccc(-c2sc(C)nc2C)cc1CN[C@H]1[C@H](C(C)(C)C)[C@@H](C(=O)O)N(C(=O)C2CCCCC2)[C@H]1c1ccccc1 [Example I-127] , what is its reported Emax?
100 to 200%

* * *

study_target: F508delCFTR (Homo sapiens, UniProt P13569, DEL508-508)
Construct: expressed in transfected cells; host or cells: CFBE41o- human lung-derived epithelial cells (CFBE4lo-F508delCFTR-HRP), doxycycline-inducible
assay_method_text: Cell Surface Expression-Horse Radish Peroxidase (CSE-HRP) Assay;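 as to Maximum % activity (with co-corrector): co-corrector and positive control are both the same reference corrector at 2 µM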
Assay type: cell-based
condition_parameters: with co-corrector (2 μM of 3-[(2R,4R)-4-({[1-(2,2-difluoro-1,3-benzodioxol-5-yl)cyclopropyl]carbonyl}amino)-7-methoxy-3,4-dihydro-2H-chromen-2-yl]benzoic acid); maximum at any tested concentration, normalized to on-plate positive control
reported_endpoint: Maximum % activity (with co-corrector)

COc1nc(C(C)(C)C)ccc1CN[C@H]1[C@H](C(C)(C)C)[C@@H](C(=O)O)N(C(=O)Cc2ccccc2C)[C@H]1c1ccccc1C(C)C | +++ (≥350)
COc1ccc(C(F)(F)F)nc1CN[C@H]1[C@H](C(C)(C)C)[C@@H](C(=O)O)N(C(=O)C2CCCCC2)[C@H]1c1ccccc1 | +++ (≥350)
COc1cccc([C@@H]2[C@H](NCc3ccc(Cl)cc3OC)[C@@H](C(C)(C)C)[C@H](C(=O)O)N2C(=O)C2CCCCC2)n1 (racemic) | +++ (≥350)

* * *

study_target: F508delCFTR (Homo sapiens, UniProt P13569, DEL508-508)
Construct: expressed in transfected cells; host or cells: CFBE41o- human lung-derived epithelial cells (CFBE4lo-F508delCFTR-HRP), doxycycline-inducible
assay_method_text: Cell Surface Expression-Horse Radish Peroxidase (CSE-HRP) Assay;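 as to Maximum % activity (with co-corrector): co-corrector and positive control are both the same reference corrector at 2 µM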
Type: cell-based
condition_parameters: with co-corrector (2 μM); maximum at any tested concentration, normalized to on-plate positive control
reported_endpoint: Maximum % activity (with co-corrector)

Take a look at these entries with their results.
COc1ccc(SC(F)(F)F)cc1CN[C@H]1[C@H](C(C)(C)C)[C@@H](C(=O)O)N(C(=O)OC(C)C)[C@H]1c1cccnc1N(C)C [III-225] | +++ (≥350)
COc1ncc(C(F)(F)F)cc1CN[C@H]1[C@H](C(C)(C)C)[C@@H](C(=O)O)N(C(=O)C2CCCCC2)[C@H]1c1cccc2c1OC(C)(C)C2 [Example 118] | +++ (≥350)
COc1ccc(C23CC(C2)C3)cc1CN[C@H]1[C@H](C(C)(C)C)[C@@H](C(=O)O)N(C(=O)[C@@H]2CCCCO2)[C@H]1c1cccnc1N(C)C [Example 51] | +++ (≥350)
COc1cc(C(F)(F)F)ccc1CN[C@H]1[C@H](C(C)(C)C)[C@@H](C(=O)O)N(C(=O)[C@@H]2CCCCO2)[C@H]1c1ccccc1 [Example 10] | +++ (≥350)

Consider now this further compound.
What reported Maximum % activity (with co-corrector) corresponds to COc1cnc(C2CCC2)cc1CN[C@H]1[C@H](C(C)(C)C)[C@@H](C(=O)O)N(C(=O)C2CCCCC2)[C@H]1c1ccccc1 [Example I-168] on F508delCFTR (Homo sapiens, UniProt P13569, DEL508-508)?
+++ (≥350)
